Hello, the source for this data is ChEMBL document CHEMBL4334523, in case you need it.

# measured.target: Stimulator of interferon genes protein (Homo sapiens); also: test concentration or dose not given here
# Sequence (Q86WV6 whole entry): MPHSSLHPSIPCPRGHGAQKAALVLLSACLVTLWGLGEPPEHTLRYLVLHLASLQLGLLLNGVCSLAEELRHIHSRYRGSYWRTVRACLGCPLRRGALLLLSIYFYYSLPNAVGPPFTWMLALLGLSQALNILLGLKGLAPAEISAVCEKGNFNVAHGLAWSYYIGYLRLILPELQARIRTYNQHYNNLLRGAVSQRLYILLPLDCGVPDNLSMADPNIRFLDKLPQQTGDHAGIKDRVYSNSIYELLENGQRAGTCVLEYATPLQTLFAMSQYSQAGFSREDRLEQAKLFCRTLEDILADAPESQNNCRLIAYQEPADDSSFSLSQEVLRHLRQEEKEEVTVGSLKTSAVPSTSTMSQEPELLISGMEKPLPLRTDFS
quantity.kind: ΔTm (°C)

The cases that follow already have their ΔTm on record.
* Nc1nc2c(ccn2[C@@H]2O[C@@H]3COP(=O)(O)O[C@H]4[C@@H](O)[C@H](n5cnc6c(N)ncnc65)O[C@@H]4COP(=O)(O)O[C@@H]2[C@@H]3O)c(=O)[nH]1 | 6.6
* Cn1c(N)nc2c(ncn2[C@@H]2O[C@@H]3COP(=O)(O)O[C@H]4[C@@H](O)[C@H](n5cnc6c(N)ncnc65)O[C@@H]4COP(=O)(O)O[C@@H]2[C@@H]3O)c1=O | 9
* Nc1nc2c(ncn2[C@@H]2O[C@@H]3COP(=O)(O)O[C@H]4[C@H](O)[C@H](n5cnc6c(N)nc(F)nc65)O[C@@H]4COP(=O)(O)O[C@@H]2[C@@H]3O)c(=O)[nH]1 | 12.3

I. NC(=O)c1ncn([C@@H]2O[C@@H]3COP(=O)(O)O[C@@H]4[C@H](O)[C@@H](COP(=O)(O)O[C@H]3[C@H]2O)O[C@H]4n2cnc3c(=O)[nH]c(N)nc32)c1N
II. CNc1ncnc2c1ncn2[C@@H]1O[C@@H]2COP(=O)(O)O[C@@H]3[C@H](O)[C@@H](COP(=O)(O)O[C@H]2[C@H]1O)O[C@H]3n1cnc2c(=O)[nH]c(N)nc21
Response body: label of entry with the larger ΔTm; valid values I , II . I would appreciate it if you answered with the label of your choice. II
(II: 9 °C, I: 1.7 °C)
